Item-by-item account of Emax
Tested system: M1 muscarinic receptor (Homo sapiens)
Construct: expressed in transfected cells; host or cells: CHO cells (M1-CHO, under zeocin and G418 selection)
Sequence (P11229 1-460): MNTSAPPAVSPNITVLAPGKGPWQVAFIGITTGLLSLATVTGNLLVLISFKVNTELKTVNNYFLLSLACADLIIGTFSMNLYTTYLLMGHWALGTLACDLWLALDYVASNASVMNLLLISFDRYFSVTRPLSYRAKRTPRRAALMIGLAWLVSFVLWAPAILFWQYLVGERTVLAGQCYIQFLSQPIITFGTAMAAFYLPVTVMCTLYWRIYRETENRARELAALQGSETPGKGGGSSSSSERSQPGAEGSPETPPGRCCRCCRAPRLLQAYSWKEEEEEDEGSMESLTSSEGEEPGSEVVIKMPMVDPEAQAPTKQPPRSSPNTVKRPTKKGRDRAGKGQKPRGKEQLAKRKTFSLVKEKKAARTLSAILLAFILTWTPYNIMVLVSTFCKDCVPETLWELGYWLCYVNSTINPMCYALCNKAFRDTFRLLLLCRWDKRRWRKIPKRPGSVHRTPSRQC
Protocol text: Functional mobilization of intracellular calcium (FLIPR, Fluo-3), M1-CHO cells
Format: cell-based
Study conditions: compound nos. 1-454; 100% efficacy is the maximum response obtained with the Carbachol control; read-out: M1 Efficacy

{"Compound": "Cc1ccc2c(c1)C1(CCN(C3CC4CCC3C4)CC1)CN2S(=O)(=O)c1ccccc1 (stereo not shown)", "Emax": "65 to 85%"}
{"Compound": "CN(C)C(=O)N1CC2(CCN(C3CC4CCC(C3)N4C(=O)O[C@H]3CCOC3)CC2)c2cc(F)ccc21 (stereo partly shown)", "Emax": "< 65%"}
{"Compound": "Fc1ccc2c(c1)C1(CCN(CC3CC4C=CC3C4)CC1)CN2 (stereo not shown)", "Emax": "65 to 85%"}
{"Compound": "C#CCOC(=O)N1CCC(N2CCC3(CC2)CN(C(C)=O)c2ccc(C)cc23)CC1", "Emax": "< 65%"}
{"Compound": "CCOC(=O)N1CCC(N2CCC3(CC2)CN(C(=O)c2ccc(C)cc2)c2ccc(F)cc23)CC1", "Emax": "< 65%"}
{"Compound": "COCCOC(=O)N1CCC(CN2CCC3(CC2)CN(C(C)=O)c2ccc(F)cc23)CC1", "Emax": "65 to 85%"}
{"Compound": "CCOC(=O)N1CCC(N2CCC3(CC2)CN(C(C)=O)c2ccc(-c4ccccc4C)cc23)CC1", "Emax": "65 to 85%"}
{"Compound": "Clc1ccc2c(c1)C1(CCO2)CCN(C[C@@H]2C[C@H]3C=C[C@H]2C3)CC1", "Emax": "> 85%"}
{"Compound": "CCOC(=O)N1C2CCC1CC(N1CCC3(CC1)CNc1ccc(Cl)cc13)C2 (stereo not shown)", "Emax": "65 to 85%"}
{"Compound": "CCOC(=O)N1CCC(N2CCC3(CC2)CN(C(C)=O)c2ccc(F)cc23)C1 (stereo not shown)", "Emax": "65 to 85%"}
{"Compound": "COCCOC(=O)N1CCCC(N2CCC3(CC2)CN(C(C)=O)c2ccc(F)cc23)CC1 (stereo not shown)", "Emax": "65 to 85%"}
{"Compound": "CCOC(=O)N1CCC(N2CCC3(CC2)CN(C(=O)OCC(C)C)c2ccc(F)cc23)CC1", "Emax": "> 85%"}
{"Compound": "CN(C)C(=O)N1CC2(CCN(C3CC4CCC(C3)N4C(=O)O[C@@H]3CCOC3)CC2)c2cc(F)ccc21 (stereo partly shown)", "Emax": "< 65%"}
{"Compound": "CCOC(=O)N1CCC(N2CCC3(CC2)CN(C(=O)c2ccc(OC(F)(F)F)cc2)c2ccc(F)cc23)CC1", "Emax": "> 85%"}
{"Compound": "Cc1ccc2c(c1)C1(CCN(C3CC4CCC3C4)CC1)CN2C(=O)c1cc(C)on1 (stereo not shown)", "Emax": "< 65%"}
{"Compound": "CN(C)C(=O)N1CC2(CCN(C3CCN(c4cncnc4)CC3)CC2)c2cc(F)ccc21", "Emax": "65 to 85%"}
{"Compound": "CCOC(=O)N1CCC(N2CCC3(CC2)CNc2ccccc23)CC1", "Emax": "> 85%"}
{"Compound": "Fc1ccc2c(c1)C1(CCN(C3CCOCC3)CC1)CN2", "Emax": "65 to 85%"}
{"Compound": "CCOC(=O)N1CCC(N2CCC3(CC2)CN(C(=O)c2cccnc2)c2ccc(F)cc23)CC1", "Emax": "> 85%"}
{"Compound": "O=C(C1CC1)N1CC2(CCN(C3CC4CCC(C3)N4C(=O)OC3CCC3)CC2)c2cc(F)ccc21 (stereo not shown)", "Emax": "65 to 85%"}
{"Compound": "COC(=O)N1CCC(CN2CCC3(CC2)CN(C(C)=O)c2ccc(C)cc23)CC1", "Emax": "< 65%"}
{"Compound": "CCOC(=O)N1C2CCC1CC(N1CCC3(CC1)CNc1ccc(C)cc13)C2 (stereo not shown)", "Emax": "65 to 85%"}
